melting point values for the molecules below.
All answers are understood in °C, so give the number only.

O=C(O)/C=C/c1ccccc1O [trans-2-hydroxycinnamic acid] = 217
BrC(c1ccccc1)(c1ccccc1)c1ccccc1 [bromotriphenylmethane] = 154
OB(O)c1ccc(OCc2ccccc2)c(F)c1 [4-benzyloxy-3-fluorobenzeneboronic acid] = 130
C=COC(C)=O [vinyl acetate] = -100
C[C@H](NC(=O)OC(C)(C)C)C(=O)O [N-boc-L-alanine] = 82
CC(C)CCC[C@@H](C)[C@H]1CC[C@H]2[C@@H]3CC=C4C[C@@H](O)CC[C@]4(C)[C@H]3CC[C@]12C [Cholesterol] = 148
CCCC(C)S (centres undefined) [2-pentanethiol] = -112
NC(=O)c1ccccc1O [o-hydroxybenzamide] = 142

Prompt: Name the recorded melting point for Cc1ccc(C(=O)c2ccccc2)cc1 [4-methylbenzophenone] .
Response: 55

Prompt: Name the recorded melting point for Nc1n[nH]c(-c2ccccc2)c1Br [3-amino-4-bromo-5-phenyl-1h-pyrazole] .
Response: 114
